Molecular target: MALAT1
Conditions: ASO, A431, 0.005 µM
After the bases stand the sugars from the 5' end (letter, count) and the backbone: PS all phosphorothioate, else s phosphorothioate and o phosphodiester by linkage. Methylation of C is not given here. k = constrained ethyl (cEt); d = 2'-deoxy (DNA)
Readings of target mRNA inhibition for the listed sequences
A number alone suffices; assume %.

The following sequences have reported results that may help.
> print(dat)
                            sequence.string          property.label  result.number
 1  CACAGGAACAAGTCCT (sugars k3 d10 k3, PS)  target mRNA inhibition             16
 2  ATTGTTTCATCCTACC (sugars k3 d10 k3, PS)  target mRNA inhibition             22
 3  CAATTTAGAGCTTCTC (sugars k3 d10 k3, PS)  target mRNA inhibition            -12
 4  CTGGGTCAGCTGTCAA (sugars k3 d10 k3, PS)  target mRNA inhibition             33
 5  ATTCTTTTCTTCGCCT (sugars k3 d10 k3, PS)  target mRNA inhibition             48
 6  GCCCGCACGGAAATTT (sugars k3 d10 k3, PS)  target mRNA inhibition             23
 7  CAGTACGAAACTCCCC (sugars k3 d10 k3, PS)  target mRNA inhibition             30
 8  GCCAACTAATTGCCAA (sugars k3 d10 k3, PS)  target mRNA inhibition             33
 9  TATTTTAAACGGGTCA (sugars k3 d10 k3, PS)  target mRNA inhibition              3
10  GGAATTCGATCACCTT (sugars k3 d10 k3, PS)  target mRNA inhibition             29

Prompt: Retrieve target mRNA inhibition measured for GCTACAACAAGTAAGC (sugars k3 d10 k3, PS) and print it.
Completion: 9

Prompt: For the sequence GACAAGGCAGTTATAT (sugars k3 d10 k3, PS) , give its measured target mRNA inhibition value.
Completion: 1

Prompt: Tell me its target mRNA inhibition given ATGGCGGACTTTCTCC (sugars k3 d10 k3, PS) as the entry.
Completion: 29

Prompt: Give recorded target mRNA inhibition. CCCCGGAACTTTTAAA (sugars k3 d10 k3, PS)
Completion: 23

Prompt: Tell me target mRNA inhibition reported for CCCCAACTAAACATAC (sugars k3 d10 k3, PS)
Completion: 26

Prompt: Answer with the recorded target mRNA inhibition of GTTTACCACCTTTTGA (sugars k3 d10 k3, PS) only.
Completion: 3

Prompt: Identify measured target mRNA inhibition corresponding to CACCTTGAGTCATTTG (sugars k3 d10 k3, PS)
Completion: 37
